These data points were gathered from patent US8592464B2.

This listing pairs molecules with measured melting point.

{"Molecule": "NC(=O)c1c(COC(=O)c2ccc(Cl)cc2)no[n+]1[O-]", "Result": "171 to 172 °C"}
{"Molecule": "NC(=O)c1c(COC(=O)c2ccccc2O)no[n+]1[O-] (hydrate or solvate)", "Result": "176 to 177 °C"}
{"Molecule": "NC(=O)c1c(COC(=O)c2ccc(O)cc2)no[n+]1[O-] (hydrate or solvate)", "Result": "241 to 242 °C"}
{"Molecule": "Cc1ccc(C(=O)OCc2no[n+]([O-])c2C(N)=O)cc1 (hydrate or solvate)", "Result": "149 to 150 °C"}

Consider NC(=O)c1c(COC(=O)c2ccc([N+](=O)[O-])cc2)no[n+]1[O-] (hydrate or solvate) . Its measured melting point is 172 to 173 °C
